target: T1, calmodulin, wild type, full-length (aa 1-148) (human, UniProt P0DP23 1-149); experiment: not stated; (Ca2+)4-CaM binding to NaV IQ motifs; data not shown
T1 construct: human calmodulin, full-length, aa 1-148; numbers count on: the protein without the initial Met (UniProt numbers are one higher); Ca2+-saturated ((Ca2+)4-CaM) and Ca2+-depleted (apo) states are the same molecule; the state is told by the assay; 15N-labelled in some NMR samples; also called CaM; WT CaM; source: bacterially overexpressed (pT7-7 vector) and purified; also bacterially coexpressed with …
Measure: pKd
Note on pKd: it is the negative log10 of concentration, concentration in mol/L.

Data request: Identify measured pKd associated with EEVSAIIIQRAYRRYLLKQKVKKVSSIYKK (domain or fragment, IQ motif of NaV1.2; also called IQ motif of NaV1.2) [NaV1.2 IQ motif]
Data returned: 7.70
